- SUBJECT_OF_TEST: Arp2/3 complex (yeast) (Saccharomyces cerevisiae, UniProt P32381+P47117, P32381:G305Y)
- METHOD_DESCRIPTION: fluorescence increase titration, one-site fit
PROPERTY_NAME: Kd (nM)
Record the value in nM, omitting the unit from your answer.

Recorded Kd for `O=P(O)(O)OP(=O)(O)OP(=O)(O)OC[C@H]1O[C@@H](n2cnc3c2ncn2ccnc32)[C@H](O)[C@@H]1O` , please?
1800

---

- SUBJECT_OF_TEST: Arp2/3 complex (yeast) (Saccharomyces cerevisiae, UniProt P32381+P47117)
- METHOD_DESCRIPTION: fluorescence increase titration, one-site fit
PROPERTY_NAME: pKd
Units for pKd: none; it is -log10 of a concentration expressed in mol/L.

Recorded pKd for O=P(O)(O)OP(=O)(O)OP(=O)(O)OC[C@H]1O[C@@H](n2cnc3c2ncn2ccnc32)[C@H](O)[C@@H]1O [etheno-ATP] , please?
5.64
